Numbers sourced from patent US8952157B2.

tested-target: UniProt:P10415
Sequence (P10415 whole entry): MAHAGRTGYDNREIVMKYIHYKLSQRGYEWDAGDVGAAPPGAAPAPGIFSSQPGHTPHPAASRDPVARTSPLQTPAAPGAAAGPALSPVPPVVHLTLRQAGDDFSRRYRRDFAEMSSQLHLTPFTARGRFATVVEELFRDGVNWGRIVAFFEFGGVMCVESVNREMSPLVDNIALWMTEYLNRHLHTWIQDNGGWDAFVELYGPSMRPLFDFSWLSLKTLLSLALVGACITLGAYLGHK
test-name: Time Resolved-Fluorescence Resonance Energy Transfer (TR-FRET) Bcl-2 binding assay
test-settings: GST-Bcl-2 1 nM, F-Bak peptide probe 100 nM, Tb-anti-GST antibody 1 nM; Ki by Wang's equation
Protocol: Determination of the utility of compounds having Formula (I) as binders to and inhibitors of anti-apoptotic Bcl-2 proteins was performed using the Time Resolved-Fluorescence Resonance Energy Transfer (TR-FRET) Assay. Tb-anti-GST antibody was purchased from Invitrogen (Catalog No. PV4216). Representative compounds were serially diluted in dimethyl sulfoxide (DMSO) starting at 50 μM (2× starting concentration; 10% DMSO) and 10 μL were transferred into a 384-well plate. […]
Entries and their log10(Ki) values follow.
Kindly note that the scale is log10 and the underlying Ki is in nM.

Could you share which log10(Ki) value was measured for CC1(C)CCC(CN2CCN(c3ccc(C(=O)NS(=O)(=O)c4ccc(NCC5CCOCC5)c([N+](=O)[O-])c4)c(Oc4ccc(N)c(Cl)c4)c3)CC2)=C(c2ccc(Cl)cc2)C1 [Example 247] ?
-1.41

Item under review: CC1(C)CCC(CN2CCN(c3ccc(C(=O)NS(=O)(=O)c4ccc(NCCN5CCOCC5)c([N+](=O)[O-])c4)c(Oc4cccc(Cl)c4)c3)CC2)=C(c2ccc(Cl)cc2)C1 [Example 141] . Reported log10(Ki)?
-0.32

Data request, read-out log10(Ki), for Cc1c[nH]c2cccc(Oc3cc(N4CCN(CC5=C(c6ccc(Cl)cc6)CC(C)(C)CC5)CC4)ccc3C(=O)NS(=O)(=O)c3ccc(NCCCN4CCOCC4)c([N+](=O)[O-])c3)c12 [Example 63]
-0.36

What log10(Ki) value was documented for this compound, CC1(C)CCC(CN2CCN(c3ccc(C(=O)NS(=O)(=O)c4ccc(NC5CCN(C6CCOCC6)CC5)c([N+](=O)[O-])c4)c(Oc4ccccc4F)c3)CC2)=C(c2ccc(Cl)cc2)C1 [Example 124] ?
-1.48

Entry under review: CN1CCC(Nc2ccc(S(=O)(=O)NC(=O)c3ccc(N4CCN(CC5=C(c6ccc(Cl)cc6)CC(C)(C)CC5)CC4)cc3Oc3cccc(F)c3Cl)cc2[N+](=O)[O-])CC1 [Example 177] . Reported log10(Ki)?
-1.43

What does the data say about its log10(Ki)? Entry: CC1(C)CCC(CN2CCN(c3ccc(C(=O)NS(=O)(=O)c4ccc(OCC5COCCO5)c([N+](=O)[O-])c4)c(Oc4cc5cc[nH]c5cc4F)c3)CC2)=C(c2ccc(Cl)cc2)C1 (stereo not shown) [Example 285]
-1.43

Look at this compound and give its reported log10(Ki). CC1(C)CCC(CN2CCN(c3ccc(C(=O)NS(=O)(=O)c4ccc(NCCCN5CCNC(=O)C5)c([N+](=O)[O-])c4)c(Oc4cc5cc[nH]c5cc4F)c3)CC2)=C(c2ccc(Cl)cc2)C1 [Example 233]
-1.43

Give its log10(Ki) value. Item: CC1(C)CCC(CN2CCN(c3ccc(C(=O)NS(=O)(=O)c4ccc(NCC5CCOCC5)c([N+](=O)[O-])c4)c(Oc4cc(NC(=O)OC(C)(C)C)ncc4Br)c3)CC2)=C(c2ccc(Cl)cc2)C1 [Example 383]
2.63

Which log10(Ki) is listed for CN(C)CCCc1c[nH]c2ccc(Oc3cc(N4CCN(Cc5ccccc5-c5ccc(Cl)cc5)CC4)ccc3C(=O)NS(=O)(=O)c3ccc(NCC4CCOCC4)c([N+](=O)[O-])c3)cc12 [Example 106] ?
2.33
